biological target: angiotensin II receptor; test: Displacement of 125I- or 3H-angiotensin II from receptor preparations from various organs (liver, lung, adrenal gland, brain etc.); conditions: Table 1; radioligand displacement, 25° C., 90 min, pH 7.4
Please assign Not satisfied whenever IC50 is at or above 2 nM, and Satisfied whenever it is below.

Take a look at these entries with their results.
- CCCCc1nc(Cl)c(C=O)n1Cc1ccc(-c2ccccc2S(=O)(=O)NC(=O)NC2CN3CCC2CC3)cc1 (stereo not shown) [Example 31]: Not satisfied
- CCCCc1nc(SC)c(C(=O)O)n1Cc1ccc(-c2ccccc2S(=O)(=O)NC(=O)OCc2cccs2)cc1 [Example 160]: Satisfied
- CCCCc1nc(Cl)c(C=O)n1Cc1ccc(-c2ccccc2S(=O)(=O)NC(=O)Nc2ccc([N+](=O)[O-])cc2)cc1 [Example 22]: Not satisfied
- CCCCc1nc(SC)c(C(=O)O)n1Cc1ccc(-c2ccccc2S(=O)(=O)NC(=O)NCCCN2CCCC2=O)cc1 [Example 116]: Not satisfied
- CCCCc1nc(Cl)c(C=O)n1Cc1ccc(-c2ccccc2S(=O)(=O)NC(=O)NCCc2ccccn2)cc1 [Example 29]: Satisfied
- CCCCc1nc(SC)c(C(=O)O)n1Cc1ccc(-c2ccccc2S(=O)(=O)NC(=O)NC2CCCCC2)cc1 [Example 59]: Satisfied

Lab note: next molecule to report on.
Req: # TODO verify IC50 < 2 nM strictly for this molecule: CCCCc1nc(SC)c(C(=O)OCC)n1Cc1ccc(-c2ccccc2S(=O)(=O)NC(=O)NCC2CCC3CC2C3(C)C)cc1 (stereo not shown) [Example 134]
Resp: Not satisfied

All values here come from patent US5482957A.
